System: SNB-75 CNS
assay.name: NCI-60 one-dose screen, 48 h (100 = growth as untreated, 0 = no growth, -100 = all killed)
measurement.conditions: 10 µM unless noted
The panel holds about 83,000 compounds, 20% with a hit somewhere; the sample as a whole holds those more often.
Answer not fulfilled if growth is under 90%, and fulfilled if it is 90% or more.

For orientation, consider the following solved cases.
compound | test.system | label.class
CC1(C)OC2C(CO)OC(n3ccc(=O)[nH]c3=O)C2O1 (stereo not given) | SNB-75 CNS | fulfilled
C=CCC(OC(C)=O)c1ccc(C(C)C)cc1 (stereo not given) | SNB-75 CNS | fulfilled

Input line: Does growth meet or surpass 90% for `O=C(O)c1cccc(-n2ncc(Cl)c(Cl)c2=O)c1` ?
Output line: not fulfilled
